Biological target: Glucose-dependent insulinotropic receptor (Homo sapiens, UniProt Q8TDV5)
Sequence (Q8TDV5 whole entry): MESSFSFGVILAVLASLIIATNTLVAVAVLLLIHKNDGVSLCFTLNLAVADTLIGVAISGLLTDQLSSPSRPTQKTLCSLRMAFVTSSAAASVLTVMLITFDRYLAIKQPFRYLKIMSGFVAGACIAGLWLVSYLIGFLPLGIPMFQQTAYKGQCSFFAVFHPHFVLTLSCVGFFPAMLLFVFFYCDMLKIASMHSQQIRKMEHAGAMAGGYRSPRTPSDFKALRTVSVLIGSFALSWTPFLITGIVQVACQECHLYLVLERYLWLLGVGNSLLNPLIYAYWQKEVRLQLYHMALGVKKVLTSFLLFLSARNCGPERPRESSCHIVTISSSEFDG
Assay: Agonist activity at human GPR119 overexpressed in CHO cells assessed as increase in cellular cAMP production by HTRF method
Format: functional, cell-based
pEC50: −log10 of the molar value.
METRIC_NAME: pEC50

COC(=O)[C@@]1(Cc2cccc(F)c2)N=Cc2cnc3c(-c4ccc(C(F)(F)F)cc4)cnn3c21 ... 7.14
CCOC(=O)[C@@]1(Cc2ccccc2)CCc2cnc3c(-c4ccc(C(F)(F)F)cc4)cnn3c21 ... 9.30
COC(=O)C1(Cc2ccccc2)CCc2cnc3c(-c4ccc(S(C)(=O)=O)cc4)cnn3c21 (racemic) ... 6.90
COC(=O)[C@@]1(Cc2cccc(F)c2)NCc2cnc3c(-c4ccc(C(F)(F)F)cc4)c(C(C)(C)O)nn3c21 ... 6.28
COCCN(C)C(=O)[C@@]1(Cc2cccc(F)c2)NCc2cnc3c(-c4ccc(C(F)(F)F)cc4)cnn3c21 ... 8.70
OCc1nn2c3c(cnc2c1-c1ccc(C(F)(F)F)cc1)CN[C@]3(Cc1cccc(F)c1)C1CC1 ... 8.70
OCc1nn2c3c(cnc2c1-c1ccc(C(F)(F)F)nc1)CN[C@]3(Cc1cccc(F)c1)C1CC1 ... 8.22
CCOC(=O)C1(Cc2ccccc2)CCCCCc2cnc3c(-c4ccc(C(F)(F)F)cc4)cnn3c21 (racemic) ... 7.00
CCOC(=O)C1(Cc2cccc(F)c2)NC(=O)c2cnc3c(-c4ccc(C(F)(F)F)cc4)cnn3c21 (racemic) ... 6.53
[2H]C([2H])(O)c1nn2c3c(cnc2c1-c1ccc(C(F)(F)F)nc1)CN[C@]3(Cc1cccc(F)c1)C(=O)OC ... 7.46

a: COC(=O)[C@@]1(Cc2cccc(F)c2)NCc2cnc3c(-c4ccc(C(F)(F)F)nc4)c(CO)nn3c21
b: COC(=O)C1(Cc2ccccc2)CCc2cnc3c(-c4ccc(C#N)cc4)cnn3c21 (racemic)
c: CCOC(=O)[C@@]1(Cc2ccccc2)CCc2cnc3c(-c4ccc(Cl)cc4)cnn3c21
d: COC(=O)C1(Cc2ccccc2)OCc2cnc3c(-c4ccc(C(F)(F)F)cc4)cnn3c21 (racemic)
Asked: Arrange these molecules by their pEC50, starting with the largest number. Order the labels as requested and list them.
Given back: c, b, a, d
(c: 8.52, b: 8.15, a: 7.82, d: 7.47)

I: [2H]C([2H])(O)c1nn2c3c(cnc2c1-c1ccc(C(F)(F)F)cc1)CN[C@]3(Cc1cccc(F)c1)C(=O)OC
II: COC(=O)[C@@]1(Cc2cccc(F)c2)NCc2cnc3c(-c4ccc(C(F)(F)F)cc4)c(CO)nn3c21
Asked: Which of these two has the smaller recorded pEC50: I or II ? Identify your selection by its label.
Given back: II
